Hello, the source for this data is patent US20220289657A1, in case you need it.

- system_name: RhlR (Pseudomonas aeruginosa)
- Construct: expressed in transfected cells; host or cells: E. coli sdiA variant co-transformed with pJN105R and pSC11 (RhlA::lacZ)
- procedure_text: cell-based
- particulars: Table 3; 1000 (μM)
Marks after values point to notes of the source that are not given here.
measured_attribute: Relative RhIR Activity (%) Agonism 1000

The following compounds have reported results that may help.
CCCCCC(=O)/C=C/c1ccc(F)c(F)c1 [Compound 13a, (E)-1-(3,4-Difluorophenyl)oct-1-en-3-one] ... 3** %
CCC[C@H](O)C#Cc1ccc(F)c(F)c1 [Compound 33c, (S)-1-(3,4-Difluorophenyl)hex-1-yn-3-ol] ... 5** %

Now for the compound whose Relative RhIR Activity (%) Agonism 1000 we want.
Dear colleague, please send me the reported Relative RhIR Activity (%) Agonism 1000 for CCCC(O)CC(=O)/C=C/c1ccc(F)c(F)c1 (stereo not drawn) [Compound 11o] when you can.
5** %

----------
# Relative RhIR Activity (%) Agonism 100 values compiled below
- system_name: RhlR (Pseudomonas aeruginosa, UniProt P54292)
- Construct: expressed in transfected cells; host or cells: E. coli sdiA variant co-transformed with pJN105R and pSC11 (RhlA::lacZ)
- Sequence (P54292 whole entry): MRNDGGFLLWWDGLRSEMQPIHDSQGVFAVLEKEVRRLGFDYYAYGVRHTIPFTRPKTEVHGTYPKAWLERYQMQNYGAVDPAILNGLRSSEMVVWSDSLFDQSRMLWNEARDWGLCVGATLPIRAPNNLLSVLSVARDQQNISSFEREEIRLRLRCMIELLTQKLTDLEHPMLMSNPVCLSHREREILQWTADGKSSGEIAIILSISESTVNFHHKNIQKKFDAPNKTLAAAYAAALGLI
- procedure_text: cell-based
- particulars: Table 3; 100 (μM)
Marks after values point to notes of the source that are not given here.

CCCC(O)CC(=O)/C=C/c1ccc(O)c(OC)c1 (stereo not shown) [Compound 11a] ... 4** %
CCCC(O)CC(=O)/C=C/c1ccc(O)c(O)c1 (stereo not shown) [Compound 11k] ... 3** %
CCCC(O)C#Cc1ccc(F)c(F)c1 (racemic) [Compound 33a, 1-(3,4-Difluorophenyl)hex-1-yn-3-ol] ... 3** %

Now for the molecule whose Relative RhIR Activity (%) Agonism 100 we want.
Dear colleague, please send me the reported Relative RhIR Activity (%) Agonism 100 for CCC[C@@H](O)C#Cc1ccc(F)c(F)c1 [Compound 33b, (R)-1-(3,4-Difluorophenyl)hex-1-yn-3-ol] when you can.
3** %

----------
- system_name: RhlR (Pseudomonas aeruginosa, UniProt P54292)
- Construct: expressed in transfected cells; host or cells: E. coli sdiA variant co-transformed with pJN105R and pSC11 (RhlA::lacZ)
- procedure_text: cell-based
- particulars: read-out: Relative RhlR activity Antagonism, Table 2; footnotes not given; 100 μM per Table 3; lower = stronger antagonism
# remaining activity at 100 µM values compiled below
# unit: % | format: bare number

The following compounds have reported results that may help.
CCCC(O)CC(=O)/C=C/c1cc(F)cc(OC)c1 (stereo not drawn) [Compound 11r] ... 74
CCCCCCCC(O)CC(=O)CCc1ccc(O)c(OC)c1 (stereo not drawn) ... 90
CCCC(O)CC(=O)/C=C/c1ccc(Cl)cc1 (stereo not drawn) [Compound 11h] ... 64

Now for the compound whose remaining activity at 100 µM we want.
Dear colleague, please send me the reported remaining activity at 100 µM for CCCC(O)CC(=O)/C=C/c1ccc(O)c(OCC)c1 (stereo not drawn) [Compound 11n] when you can.
91

----------
- system_name: RhlR (Pseudomonas aeruginosa)
- Construct: expressed in transfected cells; host or cells: E. coli sdiA variant co-transformed with pJN105R and pSC11 (RhlA::lacZ)
- procedure_text: cell-based
- particulars: read-out: Relative RhlR activity Agonism, Table 2; footnotes not given; matches the 100 column of Table 3
Please note: activity at 100 µM exactly at 2% is criterion not met. Only values below 2% get criterion met.

As a guide, the following entries are already answered.
CCCC(O)CC(=O)CCc1ccc(C)c(C)c1 (stereo not drawn) [Compound 12p] ... criterion not met
CCCCCC(O)/C=C/c1ccc(F)c(F)c1 (stereo not drawn) [Compound 15a, (E)-1-(3,4-Difluorophenyl)oct-1-en-3-ol] ... criterion not met
CCCC(O)CC(=O)CCc1ccc(C)cc1 (stereo not drawn) [Compound 12i, 5-Hydroxy-1-(p-tolyl)octan-3-one] ... criterion met
CCCC(O)CC(=O)CCc1ccc(F)c(OC)c1 (stereo not drawn) [Compound 12q] ... criterion met
CCCC(O)CC(=O)/C=C/c1ccc(O)cc1 (stereo not drawn) [Compound 11d] ... criterion met

Please determine if CCCC(O)CC(=O)/C=C/c1ccc(O)c(OC)c1 (stereo not drawn) [Compound 11a] is below 2% in terms of activity at 100 µM.
criterion not met

Please determine if CCCCC[C@@H](O)C#Cc1ccc(O)c(OC)c1 [Compound 23b] is below 2% in terms of activity at 100 µM.
criterion not met

Please determine if CCCC(O)CC(=O)/C=C/c1ccc(F)cc1 (stereo not drawn) [Compound 11g] is below 2% in terms of activity at 100 µM.
criterion met

----------
- system_name: RhlR (Pseudomonas aeruginosa, UniProt P54292)
- Construct: expressed in transfected cells; host or cells: E. coli sdiA variant co-transformed with pJN105R and pSC11 (RhlA::lacZ)
- procedure_text: cell-based
- particulars: Table 2; footnotes not given; 100 μM per Table 3; lower = stronger antagonism
Marks after values point to notes of the source that are not given here.
measured_attribute: Relative RhlR activity Antagonism

CCCC(O)CC(=O)CCc1ccc(O)c(OC)c1 (stereo not drawn) [Compound 2] ... 54** %

Dear colleague, please send me the reported Relative RhlR activity Antagonism for CCCC(O)CC(=O)/C=C/c1ccc(N(C)C)cc1 (stereo not drawn) [Compound 11j] when you can.
53** %

Dear colleague, please send me the reported Relative RhlR activity Antagonism for CCCCCC(O)C#Cc1ccc(O)c(OC)c1 (racemic) [Compound 23a] when you can.
32** %

Dear colleague, please send me the reported Relative RhlR activity Antagonism for CCCC(O)CC(=O)/C=C/c1ccc(O)c(OC)c1 (stereo not drawn) [Compound 11a] when you can.
65** %

Dear colleague, please send me the reported Relative RhlR activity Antagonism for CCCC(O)CC(=O)CCc1ccc(O)c(OC)c1 (stereo not drawn) [Compound 12a] when you can.
69** %

Dear colleague, please send me the reported Relative RhlR activity Antagonism for CCCC(=O)NC1CCCC1 [Compound 1d, N-cyclopentylbutyramide, reference compound] when you can.
54** %

Dear colleague, please send me the reported Relative RhlR activity Antagonism for CCCCC[C@@H](O)C#Cc1ccc(O)c(OC)c1 [Compound 23b] when you can.
27** %

Dear colleague, please send me the reported Relative RhlR activity Antagonism for CCCCCC(=O)/C=C/c1ccc(O)c(OC)c1 [Compound 13b] when you can.
41** %

Dear colleague, please send me the reported Relative RhlR activity Antagonism for CCCC(O)CC(=O)/C=C/c1ccc(F)c(F)c1 (stereo not drawn) [Compound 11o] when you can.
20** %

Dear colleague, please send me the reported Relative RhlR activity Antagonism for CCCC(O)CC(=O)/C=C/c1ccc(F)c(OC)c1 (stereo not drawn) [Compound 11q] when you can.
43** %

Dear colleague, please send me the reported Relative RhlR activity Antagonism for CCCCCC(O)/C=C/c1ccc(O)c(OC)c1 (stereo not drawn) [Compound 15b] when you can.
41** %

----------
# Relative RhIR Activity (%) Agonism 100 values compiled below
- system_name: RhlR (Pseudomonas aeruginosa, UniProt P54292)
- Construct: expressed in transfected cells; host or cells: E. coli sdiA variant co-transformed with pJN105R and pSC11 (RhlA::lacZ)
- procedure_text: cell-based
- particulars: Table 3; 100 (μM)
Marks after values point to notes of the source that are not given here.

The following compounds have reported results that may help.
CCCC(O)CC(=O)/C=C/c1cccc(OC)c1 (stereo not shown) [Compound 11c] ... 2** %
CCCC(=O)NC1CCCC1 [Compound 1d, N-cyclopentylbutyramide, reference compound] ... 4** %

Now for the compound whose Relative RhIR Activity (%) Agonism 100 we want.
Dear colleague, please send me the reported Relative RhIR Activity (%) Agonism 100 for CCCCC(=O)C#Cc1ccc(F)c(F)c1 when you can.
4** %

----------
- system_name: RhlR (Pseudomonas aeruginosa)
- Construct: expressed in transfected cells; host or cells: E. coli sdiA variant co-transformed with pJN105R and pSC11 (RhlA::lacZ)
- procedure_text: cell-based
- particulars: Table 3; 1000 (μM)
Marks after values point to notes of the source that are not given here.
measured_attribute: Relative RhIR Activity (%) Agonism 1000

The following compounds have reported results that may help.
CCCC(O)CC(=O)/C=C/c1ccc(O)c(O)c1 (centres unmarked) [Compound 11k] ... 5** %
CCCCCC(=O)C#Cc1ccc(F)c(F)c1 ... 5** %
CCCC(O)CC(=O)/C=C/c1cccc(OC)c1 (centres unmarked) [Compound 11c] ... 4** %

Dear colleague, please send me the reported Relative RhIR Activity (%) Agonism 1000 for CCC[C@@H](O)C#Cc1ccc(F)c(F)c1 [Compound 33b, (R)-1-(3,4-Difluorophenyl)hex-1-yn-3-ol] when you can.
5** %

Dear colleague, please send me the reported Relative RhIR Activity (%) Agonism 1000 for CCCCC(=O)C#Cc1ccc(F)c(F)c1 when you can.
6** %

Dear colleague, please send me the reported Relative RhIR Activity (%) Agonism 1000 for CCCC(O)C#Cc1ccc(F)c(F)c1 (racemic) [Compound 33a, 1-(3,4-Difluorophenyl)hex-1-yn-3-ol] when you can.
5** %

Dear colleague, please send me the reported Relative RhIR Activity (%) Agonism 1000 for CCCC(=O)NC1CCCC1 [Compound 1d, N-cyclopentylbutyramide, reference compound] when you can.
37%

Dear colleague, please send me the reported Relative RhIR Activity (%) Agonism 1000 for CCCC(O)CC(=O)/C=C/c1ccc(O)c(OC)c1 (centres unmarked) [Compound 11a] when you can.
5** %
